Test Target: ALDH1A1 enzyme (Homo sapiens, UniProt P00352)
Protocol Description: ALDH1A1 enzymatic assay (in vitro)
Format: biochemical
Recorded Conditions: ALDH1A1 enzyme 20 nM, NAD+ 1 mM, propionaldehyde 80 μM; read-out: ALDH1A1 IC50
I'd be grateful if you could share measured IC50 for these entries.

CC1(C#N)CCN(c2c(C(=O)N3CCN(S(C)(=O)=O)CC3)cnc3cc(F)c(F)cc23)CC1 [Example 136] has a reported IC50 of < 500 nM

Cn1ncc2c(N3CCC(C)(C#N)CC3)c(C(=O)N3CCN(C(=O)C4CC4)CC3)cnc21 [Example 205] has a reported IC50 of < 500 nM

CC1(C#N)CCN(c2c(C(=O)N3CCN(S(=O)(=O)C4CC4)CC3)cnc3ccccc23)CC1 [Example 98] has a reported IC50 of 1000 to 10000 nM

COc1ccc2ncc(C(=O)N3CCC(F)(F)CC3)c(N3CCC4(CC3)OCCO4)c2c1 [Example 32] has a reported IC50 of 500 to 1000 nM

N#CC1(c2ccccc2)CCN(c2c(C(=O)N3CCC(O)CC3)cnc3ccc(F)cc23)CC1 [Cpd. 331] has a reported IC50 of < 500 nM

C[C@@H]1CN(c2c(C(=O)N3CCN(C(=O)C4CC4)CC3)cnc3ccc(F)cc23)C[C@H](C)O1 [Example 60] has a reported IC50 of > 10000 nM

O=C(c1cnc2ccc(F)cc2c1N1CCC2(CC1)OCCO2)N1CCCN(C(=O)C2CC2)CC1 [Example 69] has a reported IC50 of < 500 nM

C[C@@H]1CN(C(=O)C2CC2)C[C@H](C)N1C(=O)c1cnc2ccc(F)cc2c1N1CCC(C)(C#N)CC1 [Example 240] has a reported IC50 of 1000 to 10000 nM

====

I'd be grateful if you could share measured IC50 for these entries.
Test Target: ALDH1A1 enzyme (Homo sapiens)
Sequence (P00352 1-501): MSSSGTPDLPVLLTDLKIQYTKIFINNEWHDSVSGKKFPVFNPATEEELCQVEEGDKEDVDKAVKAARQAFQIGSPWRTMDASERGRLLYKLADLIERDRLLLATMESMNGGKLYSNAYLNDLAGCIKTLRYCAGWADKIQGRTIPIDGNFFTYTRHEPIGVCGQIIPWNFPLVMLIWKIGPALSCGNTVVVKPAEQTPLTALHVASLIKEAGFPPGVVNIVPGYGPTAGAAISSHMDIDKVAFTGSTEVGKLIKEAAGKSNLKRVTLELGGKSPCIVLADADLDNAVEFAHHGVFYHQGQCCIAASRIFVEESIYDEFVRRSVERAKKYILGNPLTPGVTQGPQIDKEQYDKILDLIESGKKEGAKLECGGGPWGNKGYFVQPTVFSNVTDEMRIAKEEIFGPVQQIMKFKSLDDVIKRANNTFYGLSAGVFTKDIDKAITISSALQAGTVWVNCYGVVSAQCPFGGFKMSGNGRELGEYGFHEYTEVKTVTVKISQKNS
Protocol Description: ALDH1A1 enzymatic assay (in vitro)
Type: biochemical
Recorded Conditions: ALDH1A1 enzyme 20 nM, NAD+ 1 mM, propionaldehyde 80 μM; read-out: ALDH1A1 IC50
Where a name gives a salt, the structure may show the parent alone.

CN(C)C(=O)Cn1cc(NC(=O)c2cnc3ccc(F)cc3c2-c2ccc(C3(C#N)CC3)cc2)cn1 [Cpd. 346] has a reported IC50 of 1 to 10 µM

Cc1ccc(C2(C#N)CCN(c3c(C(=O)N4CCN(C(=O)C5CC5)CC4)cnc4ccc(F)cc34)CC2)c(F)c1 [Example 290] has a reported IC50 of < 0.5 µM

COc1ccc2ncc(C(=O)N3CCN(C(=O)C4CC4)CC3)c(N3C[C@@H](C)O[C@@H](C)C3)c2c1 [Example 34] has a reported IC50 of > 10 µM

CC1(C#N)CCN(c2c(C(=O)N3CCN(S(=O)(=O)N4CCCC4)CC3)cnc3c(F)cc(F)cc23)CC1 [Example 168] has a reported IC50 of 1 to 10 µM

CS(=O)(=O)N1CCN(C(=O)c2cnc3ccc(F)cc3c2N2CCN(C(=O)/C(C#N)=C/C3CC3)CC2)CC1 [Example 222] has a reported IC50 of < 0.5 µM

CC1(C#N)CCN(c2c(C(=O)N3CCN(S(C)(=O)=O)CC3)cnc3ccc(Cl)cc23)CC1 [Example 119] has a reported IC50 of < 0.5 µM

COc1ccc2ncc(C(=O)N3CCC(c4ccccc4)CC3)c(N3CCC4(CC3)OCCO4)c2c1 [Example 10, TFA] has a reported IC50 of < 0.5 µM

COc1ccc2ncc(C(=O)N3CCC(OC)CC3)c(N3CCC4(CC3)OCCO4)c2c1 [Example 2, TFA] has a reported IC50 of < 0.5 µM

CCS(=O)(=O)N1CCN(C(=O)c2cnc3c(F)cc(F)cc3c2N2CCC(C)(C#N)CC2)CC1 [Example 166] has a reported IC50 of < 0.5 µM

CS(=O)(=O)N1CCN(C(=O)c2cnc3ccc(F)cc3c2N2CCN(S(=O)(=O)C3CC3)CC2)CC1 [Example 252] has a reported IC50 of < 0.5 µM

CC1(C#N)CCN(c2c(C(=O)N3CCN(S(=O)(=O)N4CCCC4)CC3)cnc3ccc(F)cc23)CC1 [Example 158] has a reported IC50 of 1 to 10 µM

COc1ccc2ncc(C(=O)N3CCN(C(=O)C4CC4)CC3)c(N3CCC(OC)CC3)c2c1 [Example 3, TFA] has a reported IC50 of < 0.5 µM

C[C@@H]1CN(C(=O)c2cnc3ccc(F)cc3c2N2CCC(C)(C#N)CC2)C[C@H](C)N1S(C)(=O)=O [Example 225] has a reported IC50 of 1 to 10 µM

COc1cc2ncc(C(=O)N3CCN(S(C)(=O)=O)CC3)c(N3CCC(C)(C#N)CC3)c2cc1OC [Example 113] has a reported IC50 of < 0.5 µM

CCNC(=O)N1CCN(C(=O)c2cnc3cc(OC)c(OC)cc3c2N2CCC3(CC2)OCCO3)CC1 [Example 140] has a reported IC50 of < 0.5 µM

COc1ccc2ncc(C(=O)N3CCN(C(=O)C4CC4)CC3)c(NC3CCN(C)CC3)c2c1 [Example 21, TFA] has a reported IC50 of > 10 µM

CC(O)C1(c2ccccc2)CCN(c2c(C(=O)N3CCN(S(C)(=O)=O)CC3)cnc3ccc(F)cc23)CC1 (stereo not drawn) [Example 253] has a reported IC50 of < 0.5 µM

CC1(C#N)CCN(c2c(C(=O)N3CCN(C(=O)C4CC4)C4(CC4)C3)cnc3ccc(F)cc23)CC1 [Example 232] has a reported IC50 of < 0.5 µM

CC1(C#N)CCN(c2c(C(=O)N3CCN(S(C)(=O)=O)CC3)cnc3c(F)cc(F)cc23)CC1 [Example 135] has a reported IC50 of < 0.5 µM

CCN(CC)C(=O)N1CCN(C(=O)c2cnc3cc(F)c(F)cc3c2N2CCC(C)(C#N)CC2)CC1 [Example 174] has a reported IC50 of 0.5 to 1 µM

CCS(=O)(=O)N1CCN(C(=O)c2cnc3sccc3c2N2CCC(C)(C#N)CC2)CC1 [Example 218] has a reported IC50 of < 0.5 µM

N#CC1(c2ccccc2)CCN(c2c(C(=O)N3CC(O)C3)cnc3ccc(F)cc23)CC1 [Cpd. 326] has a reported IC50 of < 0.5 µM

COc1ccc2ncc(C(=O)N3CCN(C(=O)c4cnn(C)c4)CC3)c(N3CCC4(CC3)OCCO4)c2c1 [Example 7, TFA] has a reported IC50 of < 0.5 µM

N#CC1(c2ccc(-c3c(C(=O)Nc4cnn(CC(N)=O)c4)cnc4ccc(F)cc34)cc2)CC1 [Cpd. 342] has a reported IC50 of < 0.5 µM

N#CC1(c2ccccc2)CCN(c2c(C(=O)N3CC4(C3)CS(=O)(=O)C4)cnc3ccc(F)cc23)CC1 [Cpd. 328] has a reported IC50 of < 0.5 µM

CCN(CC)C(=O)N1CCN(C(=O)c2cnc3ccc(F)cc3c2N2CCC3(CC2)OCCO3)CC1 [Example 149] has a reported IC50 of < 0.5 µM

COc1ccc2ncc(C(=O)N3CCN(C(C)C)CC3)c(N3CCC4(CC3)OCCO4)c2c1 [Example 8, TFA] has a reported IC50 of 1 to 10 µM

N#CCC1CCN(c2c(C(=O)N3CCN(C(=O)C4CC4)CC3)cnc3ccc(F)cc23)CC1 [Example 213] has a reported IC50 of 1 to 10 µM

N#CC1(c2ccccc2)CCN(c2c(C(=O)N[C@H]3CC[C@H](O)CC3)cnc3ccc(F)cc23)CC1 [Cpd. 325] has a reported IC50 of < 0.5 µM

COc1c(F)cc2c(N3CCC(C)(C#N)CC3)c(C(=O)N3CCN(C(=O)C4CC4)CC3)cnc2c1F [Example 127] has a reported IC50 of < 0.5 µM
